Hello, the source for this data is ChEMBL document CHEMBL4152325, in case you need it.

- TARGET ENTITY: Acetylcholinesterase (Homo sapiens, UniProt P22303)
- Sequence (P22303 whole entry): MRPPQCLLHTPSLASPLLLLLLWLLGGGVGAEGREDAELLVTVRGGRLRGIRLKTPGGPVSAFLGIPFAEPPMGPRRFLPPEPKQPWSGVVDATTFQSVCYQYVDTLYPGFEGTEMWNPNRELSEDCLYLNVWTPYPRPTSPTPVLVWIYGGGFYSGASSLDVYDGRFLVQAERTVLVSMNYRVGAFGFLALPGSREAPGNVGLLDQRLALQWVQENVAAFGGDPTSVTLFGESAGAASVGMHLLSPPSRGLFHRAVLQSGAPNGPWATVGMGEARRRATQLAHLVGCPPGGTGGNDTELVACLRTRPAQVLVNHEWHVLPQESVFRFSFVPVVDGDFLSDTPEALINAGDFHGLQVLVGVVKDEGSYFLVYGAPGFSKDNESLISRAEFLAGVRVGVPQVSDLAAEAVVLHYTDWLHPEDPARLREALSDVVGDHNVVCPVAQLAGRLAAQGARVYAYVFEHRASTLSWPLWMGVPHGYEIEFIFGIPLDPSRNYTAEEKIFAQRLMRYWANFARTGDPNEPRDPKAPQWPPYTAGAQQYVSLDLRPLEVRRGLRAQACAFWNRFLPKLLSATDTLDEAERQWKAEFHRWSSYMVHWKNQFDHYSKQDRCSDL
- ASSAY PROCEDURE: Inhibition of recombinant human AChE expressed in HEK293 cells using acetylthiocholine as substrate pretreated for 20 mins followed by substrate addition by Ellman's method
READOUT KIND: pIC50
In textbook form, pIC50 equals minus log to base ten of the concentration in mol/L.

Query: Missing value: pIC50, Acetylcholinesterase (Homo sapiens, UniProt P22303), entry Nc1c2c(nc3c1C(c1cccc([N+](=O)[O-])c1)NC(=S)N3)CCCC2 (configuration not stated) . Fill in?
Reply: 4.53

Query: Missing value: pIC50, Acetylcholinesterase (Homo sapiens, UniProt P22303), entry COc1ccccc1C1NC(=S)Nc2nc3c(c(N)c21)CCCC3 (configuration not stated) . Fill in?
Reply: 4.51

Query: Missing value: pIC50, Acetylcholinesterase (Homo sapiens, UniProt P22303), entry Nc1c2c(nc3c1C(c1ccccc1)NC(=S)N3)CCCC2 (configuration not stated) . Fill in?
Reply: 4.97

Query: Missing value: pIC50, Acetylcholinesterase (Homo sapiens, UniProt P22303), entry Nc1c2c(nc3c1C(c1ccc(F)cc1)NC(=S)N3)CCCC2 (configuration not stated) . Fill in?
Reply: 4.51

Query: Missing value: pIC50, Acetylcholinesterase (Homo sapiens, UniProt P22303), entry Nc1c2c(nc3c1C(c1ccc4c(c1)OCO4)NC(=S)N3)CCCC2 (configuration not stated) . Fill in?
Reply: 5.09

Query: Missing value: pIC50, Acetylcholinesterase (Homo sapiens, UniProt P22303), entry Nc1c2c(nc3c1C(c1cccc(Br)c1)NC(=S)N3)CCCC2 (configuration not stated) . Fill in?
Reply: 7.43

Query: Missing value: pIC50, Acetylcholinesterase (Homo sapiens, UniProt P22303), entry COc1ccc(C2NC(=S)Nc3nc4c(c(N)c32)CCCC4)cc1 (configuration not stated) . Fill in?
Reply: 5.12

Query: Missing value: pIC50, Acetylcholinesterase (Homo sapiens, UniProt P22303), entry COc1cccc(C2NC(=S)Nc3nc4c(c(N)c32)CCCC4)c1 (configuration not stated) . Fill in?
Reply: 5.52

Continuing:
Query: Missing value: pIC50, Acetylcholinesterase (Homo sapiens, UniProt P22303), entry Cc1cccc(C2NC(=S)Nc3nc4c(c(N)c32)CCCC4)c1 (configuration not stated) . Fill in?
Reply: 5.00

Query: Missing value: pIC50, Acetylcholinesterase (Homo sapiens, UniProt P22303), entry Cc1ccc(C2NC(=S)Nc3nc4c(c(N)c32)CCCC4)cc1 (configuration not stated) . Fill in?
Reply: 4.62

Query: Missing value: pIC50, Acetylcholinesterase (Homo sapiens, UniProt P22303), entry Nc1c2c(nc3c1C(c1ccc(Cl)cc1)NC(=S)N3)CCCC2 (configuration not stated) . Fill in?
Reply: 5.28

Query: Missing value: pIC50, Acetylcholinesterase (Homo sapiens, UniProt P22303), entry CN(C)c1ccc(C2NC(=S)Nc3nc4c(c(N)c32)CCCC4)cc1 (configuration not stated) . Fill in?
Reply: 4.62
